- Test: changes in parasitized red cell lysis, either direction – P. falciparum Indochina, OD700, 3 h, PSAC antagonist project, primary screen (AID 1156)
- Experimental Context: P. falciparum-infected erythrocytes, osmotic lysis, higher = more signal, called active from +8 up or from −8 down
Experimental Endpoint: z-score

[
  {
    "Substance Smiles": "COC(=O)[C@@]1(Cc2ccc(OC)cc2)[C@H]2c3cc(C(=O)N4CCCC4)n(Cc4ccc(C)o4)c3C[C@H]2CN1C(=O)c1ccccc1",
    "Experimental Endpoint": "z-score",
    "Recorded Value": 1.07
  },
  {
    "Substance Smiles": "CCOC(=O)C[C@H]1[C@H](OC(=O)c2ccc(C(=O)c3ccccc3)cc2)[C@@H](NC(=O)C2CCCCC2)c2cc(OCCCO)ccc2N1C(=O)Cc1ccc(OC)cc1",
    "Experimental Endpoint": "z-score",
    "Recorded Value": 0.0357
  },
  {
    "Substance Smiles": "COc1ccc(CCNC(=O)[C@@H]2c3ccccc3C(=O)N(Cc3ccccc3C(F)(F)F)[C@H]2c2ccc(CO)cc2)cc1",
    "Experimental Endpoint": "z-score",
    "Recorded Value": 1.73
  }
]

* * *

Reported composite z-score values follow for various compounds
- Tested on: Human papillomavirus type 1a E7 protein (residues 1-88)
- Test: HPV1a E7 small-molecule binders, primary screen, biochemical, small-molecule microarray, residues 1-88, 635 nm (AID 1129)
- Experimental Context: small-molecule microarray binding, fluorescence 635 nm; higher = more signal
Experimental Endpoint: composite z-score

[
  {
    "Compound": "C=CCC(OC(C)=O)[C@@H]1[C@@H](N(Cc2cc3ccccc3o2)C(=O)Cc2ccc(OC)cc2)c2cc(OCCCO)ccc2N1C(=O)c1ccc(-c2ccccc2)cc1 (some centres not stated)",
    "Experimental Endpoint": "composite z-score",
    "Recorded Value": -0.313
  },
  {
    "Compound": "CC(C)CCC[C@@H](C)[C@H]1CC[C@@]2(C)C3=C(CC[C@]12C)[C@@]1(C)CC[C@H](OC(=O)C(C)(C)C)C(C)(C)C1CC3 (some centres not stated)",
    "Experimental Endpoint": "composite z-score",
    "Recorded Value": 0.586
  },
  {
    "Compound": "CC(C)=CCCC(C)=CC(O)C1C=CC2C(=O)N(c3ccccc3)C(=O)C2N1Nc1ccc([N+](=O)[O-])cc1 (configuration not stated)",
    "Experimental Endpoint": "composite z-score",
    "Recorded Value": 1.22
  },
  {
    "Compound": "CN1C(=O)C2C=CC(C(O)COCc3ccccc3)N(Nc3ccccc3)C2C1=O (configuration not stated)",
    "Experimental Endpoint": "composite z-score",
    "Recorded Value": 0.593
  },
  {
    "Compound": "C=CCOC(=O)[C@@H]1[C@H]2C(=O)O[C@H](c3ccccc3)[C@H](c3ccccc3)N2[C@H](c2ccc(OCCOC(=O)[C@H]3C[C@H]4C(=O)N[C@@H](Cc5ccccc5)C(=O)N4[C@H]3c3cccc(OCCO)c3)cc2)[C@@]12C(=O)Nc1ccc(I)cc12",
    "Experimental Endpoint": "composite z-score",
    "Recorded Value": 1.2
  },
  {
    "Compound": "C=C(/C(=C/C[C@@H](OC(=O)c1ccncc1)c1cccc(OCCO)c1)c1cc(C(=O)OC)ccc1OC)C(C)C",
    "Experimental Endpoint": "composite z-score",
    "Recorded Value": 1.13
  },
  {
    "Compound": "[N-]=[N+]=NCc1ccccc1C[C@]1(C(=O)NCCN2CCOCC2)N=C(c2ccc(OCCCO)cc2)O[C@H]1c1ccccc1",
    "Experimental Endpoint": "composite z-score",
    "Recorded Value": 1.22
  }
]
